test: chemical genetic growth profiling, strain panel (AID 1159580);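 further: tested at 20 µM; growth read once vehicle control cultures reached saturation at 30 °C; 1 = growth at the plate median or of vehicle wells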; settings: S. cerevisiae deletion strains, growth OD, locus YER123W, strain YCK3, stronger effect = lower value
Hit rate of the full screen: of about 5,500 compounds, about 2,000 (36%) were called active. Roughly 18% stayed inconclusive and do not appear here. The list shows a part of the results.
Rule for this label: 1 (yes) means normalized growth is less than 0.5; 0 (no) means normalized growth is at least 0.5.

Consider the following illustrative entries.
[ask] Record COc1cc(Cl)c(NS(=O)(=O)c2cc(Br)c(Br)s2)c(OC)c1 : is its normalized growth strictly below 0.5?
[reply] 0 (no)

[ask] Record COc1cc(C(=O)Oc2c(Cl)cc(Cl)cc2C=Nc2ccc([N+](=O)[O-])cc2C#N)cc(OC)c1OC : is its normalized growth strictly below 0.5?
[reply] 1 (yes)

Others:
[ask] Record COc1cc(C(=O)Oc2c(Cl)cc(Cl)cc2C=Nc2cccc([N+](=O)[O-])c2)cc(OC)c1OC : is its normalized growth strictly below 0.5?
[reply] 1 (yes)

[ask] Record COc1ccccc1NC(=O)Nc1nn(C)c2cccc(OC)c12 : is its normalized growth strictly below 0.5?
[reply] 0 (no)

[ask] Record CCOC(=O)CCc1cc(N=Cc2cc(Br)ccc2O)c(O)c(N=Cc2cc(Br)ccc2O)c1 : is its normalized growth strictly below 0.5?
[reply] 0 (no)

[ask] Record CCCCCCCC1CCC/C1=N/OC(=O)c1cccs1 (configuration not stated) : is its normalized growth strictly below 0.5?
[reply] 0 (no)

[ask] Record N=C(N)SCc1nc(-c2ccc(Cl)cc2)no1 : is its normalized growth strictly below 0.5?
[reply] 0 (no)

[ask] Record C/C(=N/OC(=O)Nc1ccc(Cl)cc1)c1ccc2c(c1)CCO2 : is its normalized growth strictly below 0.5?
[reply] 0 (no)

[ask] Record CC(=O)C(Sc1nc2ccccc2s1)C(C)=O : is its normalized growth strictly below 0.5?
[reply] 0 (no)

[ask] Record CSc1cccc(N2C(=O)CC(c3c(Cl)cccc3Cl)CC2=O)c1 : is its normalized growth strictly below 0.5?
[reply] 0 (no)

[ask] Record N/C(=N/OC(=O)c1ccc(Cl)cc1)c1ccc(F)cc1F : is its normalized growth strictly below 0.5?
[reply] 1 (yes)

[ask] Record COc1cc(N=Cc2cc(Cl)cc(Cl)c2OC(=O)c2cc(OC)c(OC)c(OC)c2)c(OC)cc1Cl : is its normalized growth strictly below 0.5?
[reply] 1 (yes)

* * *

experiment: chemical genetic growth profiling, strain panel (AID 1159580);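 further: tested at 20 µM; growth read once vehicle control cultures reached saturation at 30 °C; 1 = growth at the plate median or of vehicle wells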; settings: S. cerevisiae deletion strains, growth OD, locus YER110C, stronger effect = lower value
About 2,000 (36%) of roughly 5,500 compounds were called active. About 18% were inconclusive and are not listed. The list shows a part of the results.
measuredQuantity: normalized growth
# answer = number (no unit)

Take a look at these entries with their results.
[ask] Give the reported value of normalized growth for this record: O=C(O)c1cc(O)c(O)c(O)c1
[reply] 1.02

[ask] Give the reported value of normalized growth for this record: O=C1OCCN1/N=C\c1ccc([N+](=O)[O-])o1
[reply] 0.979

[ask] Give the reported value of normalized growth for this record: CC[C@@]1(C2O[C@@H](C3O[C@@](O)(CC)[C@H](C)C[C@@H]3C)C[C@@H]2C)CC[C@H]([C@]2(C)CCC3(C[C@H](O)[C@@H](C)[C@@H]([C@H](C)[C@@H](OC)[C@H](C)C(=O)O)O3)O2)O1 (stereo not given in full)
[reply] 1.01

[ask] Give the reported value of normalized growth for this record: CCCNC(C)C(=O)Nc1ccccc1C (stereo not given)
[reply] 0.991

From here, focus on the item given below.
[ask] Give the reported value of normalized growth for this record: C/C=C/c1ccc(OC)cc1
[reply] 1.02
